- Tested on: wild oat
- TEST METHOD NOTES: Test B preemergence/postemergence greenhouse plant response rating 0 to 10
- Type: in vivo, Avena fatua
- CONDITIONS USED: POSTEMERGENCE, Rate 50 g/ha; 0 to 10 scale
VALUE KIND: Plant response rating, Wild oat
Just the number, please, no unit attached.

The cases that follow already have their Plant response rating, Wild oat on record.
Indicate the recorded Plant response rating, Wild oat value for this compound: CC(C#N)Oc1cc(-c2nn3c(c2Cl)CCCC3)c(F)cc1Cl (stereo not drawn)
4

Answer with reported Plant response rating, Wild oat of "CC(C)Oc1cc(-c2nn3c(c2Br)CCCC3)c(F)cc1Cl"
3

Find the measured Plant response rating, Wild oat of "CCS(=O)(=O)Oc1cc(-c2nn3c(c2Cl)CCCC3)c(F)cc1Cl" and report it.
3

Complete the entry with Plant response rating, Wild oat for "CC(C)OC(=O)c1cc(-c2nn3c(c2Cl)CCCC3)c(F)cc1Cl"
5

Please give the documented Plant response rating, Wild oat of C#CC(C)Oc1cc(-c2nn3c(c2Cl)CCCC3)c(F)cc1Cl (stereo not drawn)
5

Further cases:
Please look at this compound and report its Plant response rating, Wild oat: "C=CCOC(=O)COc1cc(-c2nn3c(c2Cl)CCCC3)c(F)cc1Cl"
2
